# Substrate: CCCCCCC=O
# protocol_description: purified protein
# Format: biochemical, Synechococcus elongatus
# run_conditions: NADH 750 uM, PMS 75 uM, catalase 1 mg/ml, ferrous ammonium sulfate 80 uM, 100 mM HEPES pH 7.2, 100 mM KCl
parameter_measured: kcat
State the value, then name its unit.

cADO-1593 (1593) (Synechococcus elongatus PCC 7942 = FACHB-805; L146T) (protein, codon-optimised synthetic gene, E. coli BL21(DE3), nickel column; apo enzyme reconstituted with stoichiometric ferrous iron (diferrous form)) MPQLEASLELDFQSESYKDAYSRINAIVIEGEQEAFDNYNRLAEMLPDQRDELHKLAKMEQRHMKGFMACGKNLSVTPDMGFAQKFFERLHENFKAAAAEGKVVTCLLIQSLIIECFAIAAYNIYIPVADAFARKITEGVVRDEYTHRNFGEEWLKANFDASKAELEEANRQNLPLVWLMLNEVADDARELGMERESLVEDFMIAYGEALENIGFTTREIMRMSAYGLAAV
0.0157 s⁻¹

kcat measured on cADO-1593 (1593) (Synechococcus elongatus PCC 7942 = FACHB-805; F150Y) (protein, codon-optimised synthetic gene, E. coli BL21(DE3), nickel column; apo enzyme reconstituted with stoichiometric ferrous iron (diferrous form)) MPQLEASLELDFQSESYKDAYSRINAIVIEGEQEAFDNYNRLAEMLPDQRDELHKLAKMEQRHMKGFMACGKNLSVTPDMGFAQKFFERLHENFKAAAAEGKVVTCLLIQSLIIECFAIAAYNIYIPVADAFARKITEGVVRDEYLHRNYGEEWLKANFDASKAELEEANRQNLPLVWLMLNEVADDARELGMERESLVEDFMIAYGEALENIGFTTREIMRMSAYGLAAV = 0.0125 s⁻¹
